- measured-target: 5-hydroxytryptamine receptor 1A (Bos taurus)
- protocol-summary: Ability to displace [3H]-DPAT from 5-hydroxytryptamine 1A receptor in homogenates of bovine hippocampus.
measured-endpoint: Ki (nM)
Give bare numbers, in nM.

> print(dat)
                                   compound  measured.value
1  CCCN(CCC)C1Cc2cccc3c2N(CCC3)C1 (configuration not stated)             105
2  CCCN(CCC)C1Cc2cccc3ncn(c23)C1 (configuration not stated)             827
3  O=c1[nH]c2cccc3c2n1CC(N(CC1CC1)CC1CC1)C3 (configuration not stated)              95

List the reported Ki of each compound below.
1. O=c1[nH]c2cccc3c2n1CC(NCC1CC1)C3 (configuration not stated)
2. CCCN(CCC)C1Cc2cccc3nc(SC)n(c23)C1 (configuration not stated)
3. CCCN(CCC)C1Cc2cccc3ccn(c23)C1 (configuration not stated)
4. CCCN(CCC)C1Cc2cccc3c2N(C1)C(=O)C3 (configuration not stated)

1: 84; 2: 173; 3: 252; 4: 108

---

- measured-target: 5-hydroxytryptamine receptor 1A (Bos taurus)
- protocol-summary: Ability to displace [3H]-DPAT from 5-hydroxytryptamine 1A receptor in homogenates of bovine hippocampus.
Would you mind telling me the reported pKi of each entry?
Numbers only, as −log10 of the molar value.

Example cases with answers are listed next.
> print(dat)
                                   compound  measured.endpoint  measured.value
1  CCCN(CCC)C1Cc2cccc3c2N(C1)C(=O)CN3 (stereo unspecified)                pKi            7.31
2  CCCN(CCC)C1Cc2cccc3c2N(C1)C(=O)CC3 (stereo unspecified)                pKi            8.62
3  CCCN(CCC)C1Cc2cccc3c2N(CC3)C1 (stereo unspecified)                pKi            7.89

Then there is this compound:
Lab note: measured pKi of CCCN(CCC)C1Cc2cccc3nc(C)n(c23)C1 (stereo unspecified) was 5.35
